Catalogue of pIC50 values
# System: UniProtKB P07374
# Procedure details: Inhibition of jack bean urease assessed as reduction in ammonia production using urea as substrate after 15 mins by indophenol method
Formally, pIC50 is defined as -log10 of the concentration c, with c in mol/L.

// solved cases for pIC50 follow
Mol smiles | System | Observed
Cc1ccc(C(c2c[nH]c3ccc(C(=O)NNC(=S)Nc4ccccc4Cl)cc23)c2c[nH]c3ccc(C(=O)NNC(=S)Nc4ccccc4Cl)cc23)cc1 | UniProtKB P07374 | 5.92
Cc1ccc(C(c2c[nH]c3ccc(C(=O)NNC(=S)Nc4cccc(Br)c4)cc23)c2c[nH]c3ccc(C(=O)NNC(=S)Nc4cccc(Br)c4)cc23)cc1 | UniProtKB P07374 | 5.74
COc1ccccc1NC(=S)NNC(=O)c1ccc2[nH]cc(C(c3ccc(C)cc3)c3c[nH]c4ccc(C(=O)NNC(=S)Nc5ccccc5OC)cc34)c2c1 | UniProtKB P07374 | 5.08
Cc1ccc(C(c2c[nH]c3ccc(C(=O)NNC(=S)Nc4cccc([N+](=O)[O-])c4)cc23)c2c[nH]c3ccc(C(=O)NNC(=S)Nc4cccc([N+](=O)[O-])c4)cc23)cc1 | UniProtKB P07374 | 5.12
Cc1ccc(C(c2c[nH]c3ccc(C(=O)NNC(=S)Nc4cccc(C)c4)cc23)c2c[nH]c3ccc(C(=O)NNC(=S)Nc4cccc(C)c4)cc23)cc1 | UniProtKB P07374 | 5.29

Read the next record carefully.
Q: Identify the reported pIC50 for the following entry. Cc1ccc(NC(=S)NNC(=O)c2ccc3[nH]cc(C(c4ccc(C)cc4)c4c[nH]c5ccc(C(=O)NNC(=S)Nc6ccc(C)cc6)cc45)c3c2)cc1
Ans: 5.38

----------
# System: Urease (Canavalia ensiformis)
# Sequence (P07374 whole entry): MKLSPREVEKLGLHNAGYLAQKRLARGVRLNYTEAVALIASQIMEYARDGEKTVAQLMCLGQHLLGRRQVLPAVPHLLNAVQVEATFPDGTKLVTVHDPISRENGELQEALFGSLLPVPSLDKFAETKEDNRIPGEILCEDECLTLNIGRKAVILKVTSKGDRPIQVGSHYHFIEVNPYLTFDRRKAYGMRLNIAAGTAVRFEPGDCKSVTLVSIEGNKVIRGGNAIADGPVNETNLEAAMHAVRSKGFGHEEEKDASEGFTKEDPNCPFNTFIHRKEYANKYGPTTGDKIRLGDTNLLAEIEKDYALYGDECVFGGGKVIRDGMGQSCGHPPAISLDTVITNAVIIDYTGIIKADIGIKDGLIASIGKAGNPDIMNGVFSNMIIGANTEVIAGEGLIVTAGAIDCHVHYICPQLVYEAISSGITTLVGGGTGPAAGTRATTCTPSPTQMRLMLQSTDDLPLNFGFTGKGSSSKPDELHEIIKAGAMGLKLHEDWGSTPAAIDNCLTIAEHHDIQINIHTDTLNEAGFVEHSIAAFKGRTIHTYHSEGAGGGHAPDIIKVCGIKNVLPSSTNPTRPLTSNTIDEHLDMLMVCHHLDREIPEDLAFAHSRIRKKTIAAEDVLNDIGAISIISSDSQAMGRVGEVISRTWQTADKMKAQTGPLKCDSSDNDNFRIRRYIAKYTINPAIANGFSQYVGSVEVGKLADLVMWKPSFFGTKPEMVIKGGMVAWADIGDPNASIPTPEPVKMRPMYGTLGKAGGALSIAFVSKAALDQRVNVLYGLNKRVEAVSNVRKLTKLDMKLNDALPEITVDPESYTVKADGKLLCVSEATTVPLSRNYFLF
# Procedure details: Inhibition of jack bean urease assessed as reduction in ammonia production using urea as substrate after 15 mins by indophenol method
The following compounds are listed with their measured IC50 values.
Number plus unit, in that order.

Some compounds with known IC50 results, for comparison:
Compound | Metric name | Observed
Cc1ccc(C(c2c[nH]c3ccc(C(=O)NNC(=S)Nc4ccccc4C)cc23)c2c[nH]c3ccc(C(=O)NNC(=S)Nc4ccccc4C)cc23)cc1 | IC50 | 3.3 µM
Cc1ccc(C(c2c[nH]c3ccc(C(=O)NNC(=S)NC45CC6CC(CC(C6)C4)C5)cc23)c2c[nH]c3ccc(C(=O)NNC(=S)NC45CC6CC(CC(C6)C4)C5)cc23)cc1 (stereo not drawn) | IC50 | 18.5 µM

Q: Identify measured IC50 corresponding to Cc1ccc(C(c2c[nH]c3ccc(C(=O)NNC(=S)Nc4ccc(C(F)(F)F)cc4)cc23)c2c[nH]c3ccc(C(=O)NNC(=S)Nc4ccc(C(F)(F)F)cc4)cc23)cc1
Ans: 0.5 µM
